Data provenance: patent US11964988B2

Target: HEK-293 cells expressing a G810R mutant RET Kif5b-RET fusion protein (Homo sapiens, UniProt P07949, G810R)
Construct: KIF5B (N-terminal portion incl. coiled-coil); the other entry of the earlier key: KIF5B (P33176, Kinesin-1 heavy chain)
Experiment Summary: RET G810R Mutant Cell Assay (phospho-RET Tyr1062)
Condition Description: HEK-293 Kif5b-RET G810R, 1 hour incubation, phospho-RET normalized to GAPDH
Attribute Measured: IC50 (nM)

Solved entries:
{"Molecule": "CC(C)n1c2c(c3c(N)ncnc31)-c1noc(C3CC3)c1[C@@H](O)[C@H](C)C2 (relative stereo) [Example 62]", "Attribute Measured": "IC50", "Measured": 349}
{"Molecule": "COC1CCc2c(c3c(N)ncnc3n2C(C)C)-c2noc(C3CC3)c21 (racemic) [Example 53]", "Attribute Measured": "IC50", "Measured": 485}
{"Molecule": "Nc1ncnc2c1c1c(n2C2CCCC2)CCC(O)c2c-1noc2C1CC1 (single isomer, unassigned) [Example 124]", "Attribute Measured": "IC50", "Measured": 44}
{"Molecule": "Nc1ncnc2c1c1c(n2C(CF)CF)CC[C@@H](O)c2c-1noc2C1CC1 (single isomer, unassigned) [Example 127]", "Attribute Measured": "IC50", "Measured": 57}

[P] CC(C)n1c2c(c3c(N)ncnc31)-c1cc3ccccc3n1C(=O)NC2 [Example 69]
[Q] Nc1ncnc2c1c1c(n2C(CF)CF)CC[C@H](O)c2c-1noc2C1CC1 (single isomer, unassigned) [Example 126]
[R] C[C@@H](n1c2c(c3c(N)ncnc31)-c1noc(C3CC3)c1[C@H](O)CC2)C(F)(F)F (single isomer, unassigned) [Example 147, 2,2,2-trifluoroacetate]
[S] COCCn1ccc(NC(=O)c2ccc3cc4n(c3c2)CCCc2c-4c3c(N)ncnc3n2C(C)C)n1 [Example 96]
Task item: Place the items in sequence of falling IC50. Give the order by naming the labels one after another as requested.
Reply: P, S, R, Q

###

Target: HEK-293 cells expressing a Kif5b-RET fusion protein (Homo sapiens)
Construct: KIF5B (N-terminal portion incl. coiled-coil); the other entry of the earlier key: KIF5B (P33176, Kinesin-1 heavy chain)
Sequence (P07949 713-1063 limits assumed): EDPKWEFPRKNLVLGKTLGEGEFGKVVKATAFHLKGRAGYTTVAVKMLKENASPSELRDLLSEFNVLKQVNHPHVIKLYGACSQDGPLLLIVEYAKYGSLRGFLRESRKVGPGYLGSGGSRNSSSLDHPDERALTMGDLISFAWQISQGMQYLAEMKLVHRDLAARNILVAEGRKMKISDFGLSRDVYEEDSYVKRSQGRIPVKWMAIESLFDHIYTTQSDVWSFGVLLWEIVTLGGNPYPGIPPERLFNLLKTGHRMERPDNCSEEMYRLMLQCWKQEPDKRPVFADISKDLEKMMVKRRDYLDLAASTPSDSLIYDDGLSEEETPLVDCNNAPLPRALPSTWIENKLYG
Experiment Summary: RET Cell Assay (phospho-RET Tyr1062)
Condition Description: HEK-293 Kif5b-RET, 1 hour incubation, phospho-RET normalized to GAPDH; read-out: KIF5B-RET pTYR1062 Cell IC50
Protocol: The cellular potency of compounds inhibiting RET kinase were determined in HEK-293 cells expressing a Kif5b-RET fusion protein. Briefly, HEK-293 cells expressing a Kif5b-RET fusion protein were plated at 50K cells/well in 96 well poly-D-Lysine coated plates the day prior to the assay. […] The plates were washed with PBS-0.05% Tween20,100 μL PBS is added to each well, and the plates were read on a LI-COR Aerius fluorescent plate reader. […]
pIC50: −log10 of the molar value.
Attribute Measured: pIC50

{"Compound": "CC(C)n1c2c(c3c(N)ncnc31)-c1noc(C3CC3)c1S(=O)(=O)NC2 [Example 21, 2,2,2-trifluoroacetate]", "Target": "HEK-293 cells expressing a Kif5b-RET fusion protein (Homo sapiens)", "pIC50": 7.55}

[1] CCCN1Cc2c(c3c(N)ncnc3n2C(C)C)-c2noc(C3CC3)c2C1=O [Example 4]
[2] CC(C)n1c2c(c3c(N)ncnc31)-c1c(Cl)c3ccc(C(=O)NC4CC4)cc3n1CCC2 [Example 102]
Task item: Select the item with the higher value of pIC50 from the options 1 and 2 listed. Answer = label.
Reply: 2

###

Target: HEK-293 cells expressing a G810S mutant RET Kif5b-RET fusion protein (Homo sapiens, UniProt P07949, G810S)
Construct: KIF5B (N-terminal portion incl. coiled-coil)
Sequence (P07949 713-1063 G810S limits assumed): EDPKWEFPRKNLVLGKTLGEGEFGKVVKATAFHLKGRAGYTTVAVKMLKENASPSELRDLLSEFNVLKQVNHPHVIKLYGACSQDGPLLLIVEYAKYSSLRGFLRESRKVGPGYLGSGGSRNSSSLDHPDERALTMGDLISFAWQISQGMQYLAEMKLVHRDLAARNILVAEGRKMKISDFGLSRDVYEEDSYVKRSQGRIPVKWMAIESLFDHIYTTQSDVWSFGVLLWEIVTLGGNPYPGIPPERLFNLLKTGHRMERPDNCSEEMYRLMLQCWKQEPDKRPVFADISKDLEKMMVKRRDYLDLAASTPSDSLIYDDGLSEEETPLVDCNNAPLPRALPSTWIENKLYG
Experiment Summary: RET G810S Mutant Cell Assay (phospho-RET Tyr1062)
Condition Description: HEK-293 Kif5b-RET G810S, 1 hour incubation, phospho-RET normalized to GAPDH
pIC50: −log10 of the molar value.
Attribute Measured: pIC50

{"Compound": "Nc1ncnc2c1c1c(n2-c2ccccc2)CCC(O)c2c-1noc2C1CC1 (centres unmarked) [Example 118, 2,2,2-trifluoroacetate]", "Attribute Measured": "pIC50", "Measured": 6.97}
{"Compound": "Nc1ncnc2c1c1c(n2C2CCC2)CCC(O)c2c-1noc2C1CC1 (centres unmarked) [Example 144]", "Attribute Measured": "pIC50", "Measured": 6.75}
{"Compound": "CC(C)n1c2c(c3c(N)ncnc31)-c1noc(C3CC3)c1C(=O)NC2 [Example 19, 2,2,2-trifluoroacetate]", "Attribute Measured": "pIC50", "Measured": 6.74}
{"Compound": "Nc1ncnc2c1c1c(n2C2CCCC2)CCC(O)c2c-1noc2C1CC1 (single isomer, unassigned) [Example 124]", "Attribute Measured": "pIC50", "Measured": 7.48}

[A] CC(C)n1c2c(c3c(N)ncnc31)-c1c(Cl)c3ccc(C(=O)NC4CC4)cc3n1CCC2 [Example 102]
[B] Nc1ncnc2c1c1c(n2-c2ccccc2)CNC(=O)c2c-1noc2C1CC1 [Example 110, 2,2,2-trifluoroacetate]
Task item: Which of these two has the smaller recorded pIC50: A or B ? Answer by quoting the chosen item's label.
Reply: B
(B: 6.70, A: 7.07)

[A] Nc1ncnc2c1c1c(n2C2CCC(O)C2)CCC(=O)c2c-1noc2C1CC1 (mixture of isomers) [Example 128, 2,2,2-trifluoroacetate]
[B] CC(C)n1c2c(c3c(N)ncnc31)-c1cc3ccc(C(=O)NC4(C)CC4)cc3n1CCC2 [Example 97]
[C] Nc1ncnc2c1c1c(n2C(CF)CF)CC[C@H](O)c2c-1noc2C1CC1 (single isomer, unassigned) [Example 126]
[D] C[C@@H](n1c2c(c3c(N)ncnc31)-c1noc(C3CC3)c1[C@H](O)CC2)C(F)(F)F (single isomer, unassigned) [Example 147, 2,2,2-trifluoroacetate]
Task item: Give the ascending ranking of the items by reported pIC50. Provide the ranking by listing each label in its place in the requested order.
Reply: A, D, B, C
(A: 6.36, D: 7.05, B: 7.33, C: 7.59)
